As a worked illustration, we turn to pIC50 data collected for JAK1 (Homo sapiens (Human)).
# pIC50 is unitless: minus log10 of the molar concentration; print number only

The examples below pair each entry with its known result.
In: What does the data say about its pIC50? Entry: CN(C)C1CCN(c2ccc(Nc3ncc4ccn(-c5cccc(NS(=O)(=O)C(C)(C)C)c5)c4n3)cc2)CC1 [drawing 317]
Out: 6.40

In: Repeat for the following molecule: CC(C)(C)S(=O)(=O)Nc1cccc(-c2csc3cnc(Nc4ccc5c(c4)CCN4CCNCC54)nc23)c1 (stereo not shown)
Out: 7.36

In: Repeat for the following molecule: O=S(=O)(Nc1cccc(-n2ccc3cnc(Nc4ccc(N5CCNCC5)cc4)nc32)c1)C1CC1 [drawing 296]
Out: 6.73

Kindly consider the entry below.
In: What does the data say about its pIC50? Entry: CC(C)(C)S(=O)(=O)Nc1cc(-n2ccc3cnc(Nc4ccc(N5CCNCC5)c(F)c4)nc32)ccc1F [drawing 428]
Out: 5.68

The measured values listed here are drawn from patent US11279703B2.
